Target: GFLOMT6 (Glaucium flavum)
Test: Standard OMT assay, substrate specificity of recombinant GFLOMT6
Assay type: biochemical
Conditions: standard OMT assay
# note: boundary value 40% maps to Not fulfilled; conversion of substrate by GFLOMT6 below it maps to Fulfilled

Solved cases below.
COMPOUND	ANSWER_LABEL
COc1cc2c(cc1O)C(Cc1ccc(O)c(O)c1)N(C)CC2 (racemic) [(R,S)-6-O-Methyllaudanosoline, 6-O-Methyllaudanosoline]	Fulfilled
COc1ccc(C[C@H]2c3cc(O)c(OC)cc3CCN2C)cc1O [(S)-Reticuline, Reticuline]	Not fulfilled
COc1cc2c(cc1O)C1Cc3ccc(OC)c(O)c3CN1CC2 (racemic) [(R,S)-Scoulerine, Scoulerine]	Not fulfilled
COc1cc2c(cc1O)[C@@H]1Cc3ccc(OC)c(OC)c3CN1CC2 (racemic) [(R,S)-Tetrahydrocolubamine, Tetrahydrocolumbamine]	Not fulfilled

Please look at the following compound next.
Problem: # TODO verify conversion of substrate by GFLOMT6 < 40% strictly for this compound: COc1ccc(C[C@@H]2NCCc3cc(OC)c(O)cc32)cc1O (racemic) [(R,S)-Norreticuline, Norreticuline]
Solution: Fulfilled

###

Target: GFLOMT2 (Glaucium flavum)
Test: Standard OMT assay, substrate specificity of recombinant GFLOMT2
Format: biochemical
Details: standard OMT assay
MEASURE: conversion of substrate by GFLOMT2

Example entries and their recorded answers appear below.
MOLECULE	conversion of substrate by GFLOMT2
COc1cc2c(cc1O)C(Cc1ccc(O)c(O)c1)N(C)CC2 (racemic) [(R,S)-6-O-Methyllaudanosoline, 6-O-Methyllaudanosoline]	14%
COc1cc2c(cc1O)[C@@H]1Cc3ccc(OC)c(OC)c3CN1CC2 (racemic) [(R,S)-Tetrahydrocolubamine, Tetrahydrocolumbamine]	32%
COc1ccc(C[C@H]2c3cc(O)c(OC)cc3CCN2C)cc1O [(S)-Reticuline, Reticuline]	22%

Problem: Given COc1cc2c(cc1O)C(Cc1ccc(O)c(O)c1)NCC2 (racemic) [(R,S)-6-O-Methylnorlaudanosoline, 6-O-Methylnorlaudanosoline] , state its recorded conversion of substrate by GFLOMT2.
Solution: 1%

Problem: Request the reported conversion of substrate by GFLOMT2 associated with Oc1ccc(CC2NCCc3cc(O)c(O)cc32)cc1O (racemic) [(R,S)-Norlaudanosoline, Norlaudanosoline]
Solution: 100%

Problem: For the molecule COc1cc2c(cc1O)C1Cc3ccc(OC)c(O)c3CN1CC2 (racemic) [(R,S)-Scoulerine, Scoulerine] , what conversion of substrate by GFLOMT2 is on record?
Solution: 75%

###

Substrate specificity, enzyme GFLOMT2 listing for selected compounds.
Target: GFLOMT2 (Glaucium flavum, UniProt A0A0H4ILZ3)
Sequence (A0A0H4ILZ3 1-348): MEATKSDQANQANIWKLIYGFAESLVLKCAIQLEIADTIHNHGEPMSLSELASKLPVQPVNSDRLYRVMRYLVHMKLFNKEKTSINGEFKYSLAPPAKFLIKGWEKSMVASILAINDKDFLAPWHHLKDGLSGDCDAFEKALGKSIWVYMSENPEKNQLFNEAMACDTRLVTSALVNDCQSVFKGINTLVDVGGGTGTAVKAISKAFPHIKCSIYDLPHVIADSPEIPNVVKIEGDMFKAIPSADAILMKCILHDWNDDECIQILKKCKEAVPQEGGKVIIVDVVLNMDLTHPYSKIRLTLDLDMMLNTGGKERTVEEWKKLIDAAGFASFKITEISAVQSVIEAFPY
Assay: Standard OMT assay, substrate specificity of recombinant GFLOMT2
Type: biochemical
Details: substrate conversion in the standard OMT assay (percent)
Form field (numeric): enter value without unit.

Problem: Which Substrate specificity, enzyme GFLOMT2 value belongs to Oc1ccc(CC2NCCc3cc(O)c(O)cc32)cc1O (racemic) [(R,S)-Norlaudanosoline, Norlaudanosoline] ?
Solution: 100

Problem: Look up Substrate specificity, enzyme GFLOMT2 for this compound: COc1cc2c(cc1O)[C@@H]1Cc3ccc(OC)c(OC)c3CN1CC2 (racemic) [(R,S)-Tetrahydrocolubamine, Tetrahydrocolumbamine]
Solution: 32

Problem: # get_value(readout='Substrate specificity, enzyme GFLOMT2', item= COc1cc2c(cc1O)C(Cc1ccc(O)c(O)c1)NCC2 (racemic) [(R,S)-6-O-Methylnorlaudanosoline, 6-O-Methylnorlaudanosoline] )
Solution: 1

Problem: Could you tell me which Substrate specificity, enzyme GFLOMT2 is on file for COc1ccc(C[C@H]2c3cc(O)c(OC)cc3CCN2C)cc1O [(S)-Reticuline, Reticuline] ?
Solution: 22

Problem: Record request: Substrate specificity, enzyme GFLOMT2 value, item COc1cc2c(cc1O)C1Cc3ccc(OC)c(O)c3CN1CC2 (racemic) [(R,S)-Scoulerine, Scoulerine]
Solution: 75

Problem: Give its Substrate specificity, enzyme GFLOMT2 value. Item: COc1cc2c(cc1O)C(Cc1ccc(O)c(O)c1)N(C)CC2 (racemic) [(R,S)-6-O-Methyllaudanosoline, 6-O-Methyllaudanosoline]
Solution: 14
